In this section we review reported growth inhibition values for a set of compounds.
Assay: NCI Yeast Anticancer Drug Screen. Data for the bub3 strain (AID 167)
Conditions: S. cerevisiae bub3 mutant strain, at 50.0 µM (retest, dose inferred, filed as 5.0), active compounds read high
The panel holds about 79,000 compounds, 15% with a hit somewhere; the sample as a whole holds those more often.
Record the value in %, omitting the unit from your answer.

Use these answered entries as a reference point.
compound: COC(=O)C1(c2ccc(N(C)C)cc2OC)CCCN(C(=O)Oc2ccccc2[N+](=O)[O-])CCc2c1[nH]c1ccccc21 (stereo not given)
growth inhibition / %: 85

compound: CCOC(=O)C1CSC(c2c(CO)cnc(C)c2O)N1 (stereo not given)
growth inhibition / %: 14

compound: CCCC(=O)Oc1ccc(OCc2ccccc2)cc1
growth inhibition / %: 77

compound: Clc1ccccc1CCc1cc(-c2ccccc2)n[nH]1
growth inhibition / %: 97

compound: CCCCCc1cc(C(=O)OC/C(C)=N/O)c2ccccc2n1
growth inhibition / %: 93

Shifting focus to the compound that follows.
Ask | Any idea what its growth inhibition is? The compound is `CC(C)C(=O)[O][Bi]([c]1ccccc1)[c]1ccccc1`
Reply | 93

---

Test: NCI Yeast Anticancer Drug Screen. Data for the mec2-1 strain (AID 157)
Conditions: S. cerevisiae mec2-1 strain, at 5.0 µM (retest, dose inferred, filed as 0.5)
Compounds without any hit were thinned out: in the full panel of roughly 79,000, 15% have a hit. Active and inactive are the calls of the source. No stated cut-off is given here; in the data, active means growth inhibition above about 70%; inactive means the rest.
# valid calls are yes for active, no for inactive; nothing else

The examples below pair each entry with its known result.
molecule: CCOC(=O)C(/C=N\C(=S)Nc1c(CC)cccc1C(C)(C)C)=C(/O)c1ccccc1
label: no

molecule: C/C(=N\Nc1ccccn1)c1ccccn1
label: no

molecule: CC(=O)N1C(C(=O)NNc2ccccc2)CSC1c1ccccc1 (stereo not given)
label: no

molecule: O=C(Nc1cc(Cl)cc(Cl)c1)C(F)(F)F
label: no

molecule: O=C(c1c(F)c(F)c(F)c(F)c1F)n1c(=S)n(C(=O)c2c(F)c(F)c(F)c(F)c2F)c2ccccc21
label: no

molecule: O=C(Nc1ccccc1O)/C(Cl)=C/Cl
label: no

molecule: c1ccc2c(CCc3ccncc3)c[nH]c2c1
label: no

molecule: N#C/C(=C1C=C/C(=N/O)C=C/1Cl)c1ccccc1
label: no

Ask | What was the test verdict on `CC(=O)Nc1ccc(NC(=S)Nc2ccc(NC(C)=O)cc2)cc1` ?
Reply | no

Ask | `Cc1cccc[n+]1CC(=O)c1cccc(O)c1` , same question.
Reply | no

Ask | COC(=O)C1=C(/C=C/C(C)=O)NC(C)=C(C(=O)OC(C)C)C1c1ccccc1Cl (stereo not given) , same question.
Reply | no

Ask | Fc1cccc(CSc2ncnc3c2ncn3C2CCCS2)c1 (stereo not given) , same question.
Reply | no

Ask | `O=[N+]([O-])c1cc(F)c(Sc2cc(Br)c([N+](=O)[O-])cc2F)cc1Br` , same question.
Reply | no

Ask | `Cc1ccc2sc(=S)sc2c1` , same question.
Reply | no

Ask | `CCn1c2ccccc2n2c(=O)cc(-c3ccccc3)c(C#N)c12` , same question.
Reply | no

---

Test: NCI Yeast Anticancer Drug Screen. Data for the bub3 strain (AID 167)
Details: S. cerevisiae bub3 mutant strain, at 50.0 µM (retest, dose inferred, filed as 5.0), active compounds read high
The panel holds about 79,000 compounds, 15% with a hit somewhere; the sample as a whole holds those more often. The source made the active and inactive calls. No stated cut-off is given here; in the data, active means growth inhibition above about 70%; inactive means the rest.
measurement type: growth inhibition

Use these answered entries as a reference point.
compound: O=NNc1nc(-c2ccccn2)nc2ccccc12
growth inhibition: 98% (active)
--
compound: COc1ccccc1C1C2=C(COC2=O)OC(C)(C)Oc2cc3c(cc21)OCO3 (stereo not given)
growth inhibition: 97% (active)
--
compound: Cc1ccc(NC(=S)N(CCC#N)C2CCCCC2)cc1C
growth inhibition: 7% (inactive)
--
compound: CCS(=O)(=O)c1ccc(NC(=O)OC2CC(C)CCC2C(C)C)cc1 (stereo not given)
growth inhibition: 94% (active)
--
compound: Nc1cc(Br)cc2c1[nH]c1ccc(Br)cc12
growth inhibition: 98% (active)
--
compound: S=C(Nc1ccc(Br)c(Cl)c1)SCc1ccc2c(c1)OCO2
growth inhibition: 98% (active)

Ask | Any idea what its growth inhibition is? The compound is `CCCCCCCCCCCCSCCCN`
Reply | 99% (active)

Ask | `O=P1(Cc2ccccc2)c2ccccc2-c2ccccc21` , same question.
Reply | 99% (active)

Ask | `O=C1c2cccc3cc([N+](=O)[O-])cc(c23)C(=O)N1O` , same question.
Reply | 64% (inactive)

Ask | `Nc1ccc2nnnn2c1` , same question.
Reply | 78% (active)

Ask | CC1=Nc2ccccc2C1C(Cc1ccccc1N)c1c(C)[nH]c2ccccc12 (stereo not given) , same question.
Reply | 95% (active)

Ask | `COC(=O)/C(Br)=C(\Br)c1ccccc1` , same question.
Reply | 21% (inactive)

Ask | `CSc1cc(-c2cc3ccccc3o2)oc(=O)c1C#N` , same question.
Reply | -8% (inactive)
